- System: E. coli MG1655
- assay_explanation: High-throughput screening of FDA-approved drug library for antibiotic adjuvants (growth inhibition, OD600)
- Format: cell-based, Escherichia coli
- assay_conditions: library drug alone, LB medium, 96-well, 8 h static culture at 37°C, relative to PMBN (positive) and DMSO (negative) controls, %, table head prints no unit
Here, each record is paired with measured Growth inhibition, Compound data.
State the value, then name its unit.

molecule="CCn1nc(C(=O)O)c(=O)c2cc3c(cc21)OCO3 [Cinoxacin]" experimental_system="E. coli MG1655" result=88%
molecule="CO/N=C1\\C[C@]2(C[C@@H]3C[C@@H](C/C=C(\\C)C[C@@H](C)/C=C/C=C4\\CO[C@@H]5[C@H](O)C(C)=C[C@@H](C(=O)O3)[C@]45O)O2)O[C@H](/C(C)=C/C(C)C)[C@H]1C [Moxidectin]" experimental_system="E. coli MG1655" result=32%
molecule="CCCN1C[C@H](C)[C@@H](O)[C@](C)(O)[C@@H](CC)OC(=O)[C@H](C)[C@@H](O[C@H]2C[C@@](C)(OC)[C@@H](O)[C@H](C)O2)[C@H](C)[C@@H](O[C@@H]2O[C@H](C)C[C@H](N(C)C)[C@H]2O)[C@](C)(O)C[C@H]1C [Gamithromycin]" experimental_system="E. coli MG1655" result=96%
molecule="CO/N=C(\\C(=O)N[C@@H]1C(=O)N2C(C(=O)OCOC(=O)C(C)(C)C)=C(Cn3nnc(C)n3)CS[C@H]12)c1csc(N)n1 [Cefteram pivoxil]" experimental_system="E. coli MG1655" result=110%

// next item, Growth inhibition, Compound requested
Find Growth inhibition, Compound (E. coli MG1655) for the entry NC[C@H]1O[C@H](O[C@H]2[C@H](O[C@@H]3O[C@H](CO)[C@@H](O)[C@H]3O)[C@@H](O)[C@H](N)C[C@@H]2N)[C@H](N)[C@@H](O)[C@@H]1O.O=S(=O)(O)O [Ribostamycin sulfate]
110%
